Reported pEC50 by item:
Target: NPEPPS (Homo sapiens)
Construct: endogenous in cells
Sequence (P55786 whole entry): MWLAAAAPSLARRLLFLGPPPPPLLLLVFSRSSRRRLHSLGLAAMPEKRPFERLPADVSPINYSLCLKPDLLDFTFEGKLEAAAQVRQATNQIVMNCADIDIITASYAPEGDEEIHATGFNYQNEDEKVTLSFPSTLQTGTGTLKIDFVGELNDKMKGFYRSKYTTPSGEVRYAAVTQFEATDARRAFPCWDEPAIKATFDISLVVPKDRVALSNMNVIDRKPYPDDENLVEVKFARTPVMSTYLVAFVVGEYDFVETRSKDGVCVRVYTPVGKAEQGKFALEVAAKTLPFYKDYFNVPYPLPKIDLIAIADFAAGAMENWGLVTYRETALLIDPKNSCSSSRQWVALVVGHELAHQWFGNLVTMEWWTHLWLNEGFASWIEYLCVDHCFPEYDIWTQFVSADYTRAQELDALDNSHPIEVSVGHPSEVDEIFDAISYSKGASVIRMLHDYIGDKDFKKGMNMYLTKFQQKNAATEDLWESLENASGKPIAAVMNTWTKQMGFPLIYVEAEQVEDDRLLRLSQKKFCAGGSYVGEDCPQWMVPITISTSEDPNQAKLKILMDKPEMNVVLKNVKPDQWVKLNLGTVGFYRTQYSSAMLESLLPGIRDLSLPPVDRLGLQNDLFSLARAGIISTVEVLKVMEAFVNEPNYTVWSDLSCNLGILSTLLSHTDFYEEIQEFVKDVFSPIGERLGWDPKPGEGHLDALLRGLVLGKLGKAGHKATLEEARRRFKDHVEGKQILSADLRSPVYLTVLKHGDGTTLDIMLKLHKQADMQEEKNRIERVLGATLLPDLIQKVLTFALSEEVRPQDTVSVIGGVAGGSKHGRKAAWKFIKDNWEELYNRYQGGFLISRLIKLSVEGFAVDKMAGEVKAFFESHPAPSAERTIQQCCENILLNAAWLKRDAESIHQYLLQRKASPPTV
Experiment: Cell-based NPEPPS activity assay (Q-AMC fluorescence)
Details: log10 transformed; EC50 = concentration that elevates 50% NPEPPS activity (150% of DMSO baseline); HEK293T cells
pEC50: −log10 of the molar value.

compound: c1ccc(CNc2nsc3ccccc23)cc1 [JMM009]
target system: NPEPPS (Homo sapiens)
pEC50: 3.89
//
compound: COc1ccc(CN(C)c2nsc3ccc(OC)cc23)cc1 [JMM100]
target system: NPEPPS (Homo sapiens)
pEC50: 4.10
//
compound: COc1ccc(COc2nsc3ccccc23)cc1OC [JMM104]
target system: NPEPPS (Homo sapiens)
pEC50: 3.98
//
compound: O=[N+]([O-])c1ccc(CNc2nsc3ccccc23)cc1 [JMM043]
target system: NPEPPS (Homo sapiens)
pEC50: 4.09
